Test system: SK-MEL-2 melanoma
assayExplanation: NCI-60 one-dose screen, 48 h
testSettings: 10 µM unless noted
About 83,000 compounds went through this panel and 20% of them were active in at least one assay; those are over-represented in the sample as a whole. Calls of active or inactive are those of the source. The calls were made as follows: active = growth percent below 10; inactive = the rest.
Give one outcome, nothing more. List: active, inactive

Here's what some known entries look like.
COc1ccc(CCNc2nc(SC)nc(-c3cccc([N+](=O)[O-])c3)c2C#N)cc1OC ... inactive
OCc1ccc(N2CCc3cccc(F)c3C2)cc1Cl ... inactive
Oc1cccc(-c2nc(N3CCOCC3)c3c4c(sc3n2)CCCC4)c1 ... inactive
COc1cc2nc(N3CCCC3)nc(NCc3ccccc3)c2cc1OC ... inactive
COc1cc(C=Nc2oc(-c3ccccc3)c(-c3ccccc3)c2C#N)cc(CN2CCCCC2)c1O ... inactive

Q: Outcome logged for COc1ccc(-c2cc(Nc3ccnc(N4CCOCC4)n3)on2)cc1 in this assay:
Ans: inactive

Q: # outcome recorded in this test, key = OC(COc1cccc2ccccc12)CN1CCN(c2ccccc2Cl)CC1 (stereo not given)
Ans: inactive

Q: Outcome? CN(CCCCCl)P(=O)(OCc1ccc([N+](=O)[O-])o1)C(F)(F)c1ccc(CC(=O)NC[C@@H](O)/C=C\[C@@H](O)[C@H](CO)Cc2ccccc2)cc1 (stereo not given in full)
Ans: inactive

Q: I would be grateful if you could indicate the recorded call for O=C1NC(=O)C(c2ccc(Cl)cc2Cl)N1 (stereo not given) .
Ans: inactive

Q: For O=C1Nc2cc(-c3ccc(O)cc3)ccc2/C1=C/c1ccc[nH]1 , which call appears in the assay record?
Ans: active

----------
Each entry below carries its recorded growth.
Tested on: HCT-116 colon
assayExplanation: NCI-60 one-dose screen, 48 h (100 = growth as untreated, 0 = no growth, -100 = all killed)
testSettings: 10 µM unless noted
Protocol: Growth inhibition of the HCT-116 human tumor cell line is measured as a screen for anti-cancer activity. Cells are grown in 96 well plates and exposed to the test compound for 48 hours. Compounds are tested at a single concentration, which is 10^-5 M for most compounds. The reported endpoint is percent growth (GI% or GIPRCNT), where numbers from 0 - 100% represent growth inhibition, and numbers from -100% - 0 represent cell death. For example, a value of 40 represents 60% growth inhibition. […]
About 83,000 compounds went through this panel and 20% of them were active in at least one assay; those are over-represented in the sample as a whole.
Write the value in % as a bare number.

Would you please look over these solved cases?
FC(F)(F)c1[nH]ncc1-c1nc2ccc3n[nH]c(C#Cc4cccnc4)c3c2c2c1CCCC2 ... 9.04
CC(=O)OC[C@H]1O[C@H](OC(C)=O)[C@H](NC(=O)/C=C/CCl)[C@@H](OC(C)=O)[C@@H]1OC(C)=O ... 60.4

// next item, growth requested
Q: Return reported growth; argument: CC[C@]1(O)C[C@@H]2CN(CCc3c([nH]c4ccccc34)[C@@](C(=O)OC)(c3cc4c(cc3OC)N(C)[C@H]3[C@@](O)(C(N)=O)[C@H](O)[C@]5(CC)[C@@H]6C[C@@H]6CN6CC[C@]43[C@@H]65)C2)C1
Ans: 6.89

----------
Test system: HT29 colon
assayExplanation: NCI-60 one-dose screen, 48 h
testSettings: 10 µM unless noted
This is part of a sample that, as a whole, favours compounds with a hit. Of some 83,000 tested, about 20% had one in any assay. Active and inactive are the calls of the source. Rule for the calls: active = growth percent below 10; inactive = the rest.
Write down the outcome that applies. Available outcomes: active, inactive

Q: I'd appreciate the recorded outcome for OCc1ccc(N2CCc3cccc(F)c3C2)cc1Cl from this test.
Ans: inactive

Q: Please share the test call associated with Cc1nc(Nc2ccc(F)c(Cl)c2)sc1C(=O)O .
Ans: active

Q: Which result was noted for this molecule in the test: O=C1/C(=C(/c2ccccc2)N2CCOCC2)Cc2ccccc21
Ans: active

Q: Please let me know the test result on file for Cc1cc(N2CCOCC2)nc(NCc2cc(Nc3ccnc4cc(Cl)ccc34)ccc2F)n1 .
Ans: active

Q: Recorded test outcome, item CCCCC[C@H]1C/C=C2/C(=O)C=C[C@@H]2C/C=C\CCCC(=O)O1
Ans: active

Q: Give the logged outcome of this assay for the following molecule: COc1ccc(C(=O)COc2ccc(/C=C3\COc4ccc(OC)cc4C3=O)cc2)cc1
Ans: inactive

Q: Can you look up the reported call for COc1ccc(C(=O)/C=C/c2cccnc2Nc2cc(OC)c(OC)c(OC)c2)cc1 for me?
Ans: inactive

Q: Record lookup: outcome of this test for O=C1Nc2cc(-c3ccc(O)cc3)ccc2/C1=C/c1ccc[nH]1 ?
Ans: active

Q: Recorded test outcome, item COc1ccc2c(c1)CC/C(=C\c1cncc(Br)c1)C2=O
Ans: inactive

Q: What was the test verdict on Cc1cc(C)nc(SC2=C(Nc3ccc(O)cc3)C(=O)N(Cc3ccccc3)C2=O)n1 ?
Ans: inactive

Q: For Cn1c(=O)[nH]c(=O)c2nc(CCC(=O)NCCC(=O)O)c(=O)[nH]c21 , what call appears in the results of this test?
Ans: inactive

----------
System: SNB-19 CNS
assayExplanation: NCI-60 one-dose screen, 48 h (100 = growth as untreated, 0 = no growth, -100 = all killed)
testSettings: 10 µM unless noted
This is part of a sample that, as a whole, favours compounds with a hit. Of some 83,000 tested, about 20% had one in any assay. Activity calls are given as the source filed them. The calls were made as follows: active = growth percent below 10; inactive = the rest.
recordedMetric: growth

Q: Quick one: growth of Brc1ccc(-c2csc(Nc3ccccn3)n2)cc1 ?
Ans: 99.4% (inactive)

Q: Any idea what growth was measured for Cc1nn(-c2cc(=O)[nH]c3ccc(Cl)cc23)c(N)c1C#N ?
Ans: 108% (inactive)

Q: Please give the measured growth for this molecule: CN(C)c1ccc(N=Nc2ccc(Br)cn2)c(O)c1
Ans: 19.6% (inactive)

Q: Bench note: what growth did Clc1ccc2c(NCCCCNc3nc(N4CCCCC4)nc4ccccc34)ccnc2c1 show?
Ans: 18.6% (inactive)

Q: Request the reported growth associated with C=CC(=O)Nc1cccc(-c2nc(SC)nc(Nc3ccccc3OC)c2C#N)c1
Ans: 74.5% (inactive)

Q: For the molecule OCCN1CCN(c2nc(Nc3ccc(-c4nc5ccccc5[nH]4)cc3)c3cn[nH]c3n2)CC1 , what growth is on record?
Ans: -76.7% (active)

----------
Test system: HS 578T breast
assayExplanation: NCI-60 one-dose screen, 48 h
testSettings: 10 µM unless noted
Compounds without any hit were thinned out: in the full panel of roughly 83,000, 20% have a hit. Active and inactive are the calls of the source. The calls were made as follows: active = growth percent below 10; inactive = the rest.
Assign a class; possible classes are yes (1) = active, no (0) = inactive

COc1cc(/C=C/c2cc(/C=C/c3ccc(O)c(OC)c3)n(-c3c(Cl)cccc3Cl)c(=O)n2)ccc1O ... no (0)
Clc1ccc2c(NCCNc3nc(N4CCOCC4)nc4ccccc34)ccnc2c1 ... yes (1)
COc1cc(CNc2oc(-c3ccccc3)c(-c3ccccc3)c2C#N)cc(CN2CCN(C)CC2)c1O ... no (0)

Q: // return assay outcome for O=C1NC(=O)C(c2ccc(Cl)cc2Cl)N1 (stereo not given)
Ans: no (0)

Q: Per the records of this test, what outcome belongs to CC/C=C\C/C=C\C[C@H]1C/C=C2/C(=O)C=C[C@@H]2C/C=C\CCC(=O)O1 ?
Ans: no (0)

----------
System: T-47D breast
assayExplanation: NCI-60 one-dose screen, 48 h (100 = growth as untreated, 0 = no growth, -100 = all killed)
testSettings: 10 µM unless noted
Procedure: Growth inhibition of the T-47D human tumor cell line is measured as a screen for anti-cancer activity. Cells are grown in 96 well plates and exposed to the test compound for 48 hours. Compounds are tested at a single concentration, which is 10^-5 M for most compounds. The reported endpoint is percent growth (GI% or GIPRCNT), where numbers from 0 - 100% represent growth inhibition, and numbers from -100% - 0 represent cell death. For example, a value of 40 represents 60% growth inhibition. […]
About 83,000 compounds went through this panel and 20% of them were active in at least one assay; those are over-represented in the sample as a whole.
recordedMetric: growth (%)
Numeric answer only, unit % assumed.

Examples from the recorded data:
CCOC(=O)n1cc(-c2nonc2-c2cn(C)c3ncccc23)c2cc(F)ccc21 ... 10.4
Cn1c(NCCc2ccc(O)c(O)c2)nc2c1c(=O)n(Cc1ccc(Cl)c(Cl)c1)c(=O)n2C ... 58
O=[N+]([O-])c1ccc2c(c1)Cc1cc(F)ccc1-2 ... 94.4
CC(=O)c1cc2c(N)c(C(=O)Nc3cccc4ccccc34)sc2nc1C ... 42.7
Nc1ccc(-c2cc3c(Nc4ccc(Oc5cccc(C(F)(F)F)c5)c(Cl)c4)ncnc3s2)cc1 ... 43.8

Q: Give growth (T-47D breast) of the following compound: CN1CCN(Cc2ccc(NC(=O)c3cncc(C#Cc4cncn5ccnc45)c3)cc2C(F)(F)F)CC1
Ans: 98.9

Q: Record Cn1c(=O)[nH]c(=O)c2nc(CCC(=O)NCCC(=O)O)c(=O)[nH]c21 : what is its growth with T-47D breast?
Ans: 98.8

Q: T-47D breast / growth / O=C1NC(=S)N[C@H]1CC(=O)n1cnc2ccccc21 : value?
Ans: 99.6

Q: # get_value(readout= growth, system= T-47D breast) for O=C1OC(c2ccccc2)C(O)=C1c1ccccc1 (stereo not given)
Ans: 111

Q: Short answer please: growth, T-47D breast, entry CC(=O)OCCC/C(=C/c1cc2ccccc2c2ccccc12)[N+](=O)[O-]
Ans: -66.7

Q: Can you look up growth on T-47D breast for COc1cc2c(cc1-c1c(C)noc1C)ncc1nc(C3CCC(F)(F)CC3)n([C@H](C)COC(F)F)c12 ?
Ans: 46

Q: growth of Nc1nc2ccc3[nH]ncc3c2c2c1CCCC2 on T-47D breast?
Ans: 11

Q: Observed growth on T-47D breast for NCCNc1nc(Nc2ccc(-c3nc4ccccc4[nH]3)cc2)c2cn[nH]c2n1 , please.
Ans: 60.8

Q: Form: Entry = C=CC(=O)Nc1cccc(-c2nc(SC)nc(Nc3cccc(OC)c3)c2C#N)c1 | System = T-47D breast | growth = ____
Ans: 38.5

Q: // fetch T-47D breast growth for COc1ccc(C2CC(c3ccc4ccccc4c3)=NN2/C=C2\SC(=S)N(NC(=O)Cc3ccccc3Nc3c(Cl)cccc3Cl)C2=O)cc1 (stereo not given)
Ans: 19.2

Q: Report growth for C=C1C(=O)O[C@H]2[C@H]1CC/C(COC(=O)NCCc1ccc(OC)c(OC)c1)=C\CC[C@@]1(C)O[C@@H]21 tested on T-47D breast.
Ans: 33.2

Q: Under T-47D breast: growth value of CCOc1cc2ncc(C#N)c(Nc3ccc(OCc4cccc(F)c4)c(Cl)c3)c2cc1NC(=O)CCCCC1CCSS1 (stereo not given) ?
Ans: 64.4

Q: Field: growth (T-47D breast). Entry: COc1ccc(O)c(N=Nc2nccs2)c1
Ans: 37

Q: Find growth (T-47D breast) for the entry Cc1cc(C)c2nc3nc(C)cc(C)c3c(N)c2c1
Ans: 37.8

Q: Request body: readout growth, system T-47D breast, query CCCOc1cc2ccccc2cc1C(=O)Nc1nc(N)c2c(ccc3nccc32)[nH]1 . Return the value.
Ans: -51
